System: MS2 coat protein
RUN_DESCRIPTION: apparent KD of MS2 coat protein; designed switch direction (-1 OFF switch, 1 ON switch): -1; higher = weaker reporter binding
MEASUREMENT_SETUP: Eterna round: R95; input ligand: FMN 200 uM
VALUE_KIND: apparent KD of MS2 coat protein
# output: number + unit

- SEQUENCE_DATA: "AGGUGAUAUCUGUCGAUGGACAUGAGGAUCACCCAUGUGAGCUUUUUGCUCGUCUUAUAAACCGGUGACAGACCUUC [Sensor v3, turn-off variant 1 (MOD of Zalaso)] (puzzle: Sensor v3, turn-off variant 1)"
  VALUE_KIND: "apparent KD of MS2 coat protein"
  RESULT: "0.0498 µM"

In the following, a different sequence is considered.
INPUT: For GAAUAUAAGCAAAGAUCCUACAUGAGGAUCACCCAUGUGCUCGUCUUAUAAAGUACUAUCACGAAAGUGAUAGUACA [Mat - Sensor v3 - turn-off var 1 - Eli Mod - D82] (puzzle: Sensor v3, turn-off variant 1) , write its apparent KD of MS2 coat protein.
OUTPUT: 0.0899 µM

====

System: K4 kissing-loop RNA reporter
RUN_DESCRIPTION: apparent KD of K4 kissing-loop reporter; higher = weaker reporter binding
MEASUREMENT_SETUP: Eterna round: R107; input ligand: arginine 13.2 mM
VALUE_KIND: apparent KD of K4 kissing-loop reporter (nM)
Field: numeric (nM). Do not append units.

A selection of reference data follows.
- SEQUENCE_DATA: "GGUAGCAUGGCGGCCGCCACUUUUACUGGAUCGGAAACGAUCCAGUAUUGUGUAGUGAUGUUACAAAGGACCGGGCCAUGCUACC"
  apparent KD of K4 kissing-loop reporter (nM): 188
- SEQUENCE_DATA: "AGACUACCACACUGUCAAUAGACAGUGUACUAGGAUAUGCUGAUAAGCAGAAGGAGUGAUGUUCCUAGGUAGUCAAUAAAAUAAU [FmnAX 13 U28]"
  apparent KD of K4 kissing-loop reporter (nM): 443

Please look at the following sequence next.
INPUT: Provide one value: measured apparent KD of K4 kissing-loop reporter of GGGAGUAGUGCGGCCGCCACUGUGAGGGAAGAAGAAUAUAGUGAUGUUAUAUAGGAAGGGAAGAAUAGGACCGGGCAUUAGAUUU [SSTRyptB.aB]
OUTPUT: 208

====

Recorded apparent KD of MS2 coat protein values for a group of sequences are listed next.
System: MS2 coat protein
RUN_DESCRIPTION: apparent KD of MS2 coat protein; higher = weaker reporter binding
MEASUREMENT_SETUP: Eterna round: R107; input ligand: tryptophan 2.4 mM
Please give the number followed by its unit.

Field: example entries. Status: answers known.
- SEQUENCE_DATA: "GGAAGCAGGACUGAUACCAGUCCAGCGAAUCAUACGACGCAACAUGAGGAUCACCCAUGUGACCCUUGGCAGCAGACUGCUACCG [Same State Theophylline B GF 27]"
  apparent KD of MS2 coat protein: "32.2 nM"
- SEQUENCE_DATA: "GAUCCUCGUACGGAUACCAGCGACUAACAUGAGGAUCACCCAUGUGAUAAAGAAAAUAUUUGCCCUUGGCAGCCGAAUAGAUAGU [#21 Same State - Theophylline B]"
  apparent KD of MS2 coat protein: "74.2 nM"

INPUT: Provide only the value of recorded apparent KD of MS2 coat protein for UUUGAUAGGACAGAUACCAGCGUGUUGUUGAACAUGAGGAUCACCCAUGUAGUGAUCGAGCGCCCUUGGCAGCUGGUUUGUUAGG [7.O]
OUTPUT: 307 nM

====

System: K4 kissing-loop RNA reporter;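 note: bound reporter read as fluorescence of individual clusters on recovered sequencing chips by microscopy, with normalized cluster intensities fitted with a binding model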
RUN_DESCRIPTION: apparent KD of K4 kissing-loop reporter; higher = weaker reporter binding
MEASUREMENT_SETUP: Eterna round: R107; input ligand: none
// reported apparent KD of K4 kissing-loop reporter for each item listed
Return type: number; implicit unit nM.

- SEQUENCE_DATA: "UAAGAUAUGAGGGAUACCAGCCAUAAGGAAAGUGUGAUGAGUGAUGUUCUGACAAGCCAAGGCCCUUGGCAGCUUUAAUAGCAUC [whbob_SS_Theo_B_th76]"
  VALUE_KIND: "apparent KD of K4 kissing-loop reporter"
  UNIT_INFO: "nM"
  READOUT_NUMBER: 164

INPUT: Give recorded apparent KD of K4 kissing-loop reporter. UGUUAUGUAUCAGGAUAUUAGUGUUGUUUGUUUAUGUUAGUGAUGUUGAUAUUUGUUUUAUGUAUUUAAGAAGGGAUUGAGAUGU [kkplmullin]
OUTPUT: 310

INPUT: In one line, give reported apparent KD of K4 kissing-loop reporter of the entry GGUUCCUCAGUGAUGUUGAGGUGACCUCGGCAGGAUAUAGGCAUUACUAGAAGGGCCAAAAGAAUCCUGUGCAGCAACACAGGGA [Usrasoza] .
OUTPUT: 298

INPUT: Give apparent KD of K4 kissing-loop reporter for the following sequence: AGACUACUGACAGGAUAUAACAUCCUAGUCGUAUACCGAAAGGUAUACGAUUCCCUUCUAGUGAUGUUAGAAGGGUCGGUAGUCA [Omei KL FMN B Exc B v13]
OUTPUT: 103

INPUT: Item GCUAUGGUAGGAAGGAGCGCUGCCUUGUUUUUACGAGUGAUGUUCGGAAGCAGGGUGUUAAAGCAGGUAGGUCGCCUACUAUAGC [Arginine B K4 23] : provide apparent KD of K4 kissing-loop reporter
OUTPUT: 160

INPUT: Given the sequence AGUGUGCAAAAGCACACUCAGUACAAGGACAAGGAUAUCUACUAAUAGAGAAGGUGUCCUUUCCUUAGUGAUGUUAAGGAGCUGA [Omei KL FMN A SS D v2] , write its reported apparent KD of K4 kissing-loop reporter.
OUTPUT: 339

====

System: MS2 coat protein
RUN_DESCRIPTION: apparent KD of MS2 coat protein; designed switch direction (-1 OFF switch, 1 ON switch): 1; higher = weaker reporter binding
MEASUREMENT_SETUP: input ligand: FMN 200 uM
Quick rule: apparent KD of MS2 coat protein of at least 80 nM means 1.0, below that means 0.0.

Use these answered entries as a reference point.
- SEQUENCE_DATA: "AUUGGGUAACGAGGAUAUCGUUUUUGUUUUUUUCGAGAAGGCGUUAUAGUUUCUUUCUAUUGUUACAUGAGGAUCACCCAUGUU [JR_SSNG1_Sub053] (Eterna round: R96, puzzle: Same State NG 1)"
  QUALITATIVE_LABEL: 0.0
- SEQUENCE_DATA: "UGUUUGUUGUGAGGAUAUACAUACACCUUACAUGAGGAUCACCCAUGUUUUAAUUUUGAUAGUUAGUAGAAGGCACAUGAUUAU [JR_SSNG2_Sub044] (Eterna round: R96, puzzle: Same State NG 2)"
  QUALITATIVE_LABEL: 0.0
- SEQUENCE_DATA: "GCUACAUGAGGAUCACCCAUGUGUGUGUGGGAGUGAGUGGCUUAGGAUAUCUAUGAUUUUAGUUGAGAGAAGGAGGAUUGCUGU [SS-NG3-LRO09] (Eterna round: R96, puzzle: Same State NG 3)"
  QUALITATIVE_LABEL: 1.0

INPUT: Please indicate if the recorded apparent KD of MS2 coat protein for AGAUCAUGACGAGGAUAUGGAACAUGAGGAUCACCCAUGUAUGUUCCAUAACGCGAAUGACGAAUCCAGAAGGCGUCGUGAUCA [Mat - Same State NG 2 - JL mod - D26] (Eterna round: R96, puzzle: Same State NG 2) meets or exceeds 80 nM.
OUTPUT: 0.0

====

Below, each entry is listed alongside its reported apparent KD of MS2 coat protein.
Test system: MS2 coat protein
RUN_DESCRIPTION: apparent KD of MS2 coat protein; higher = weaker reporter binding
MEASUREMENT_SETUP: Eterna round: R107; input ligand: tryptophan 2.4 mM
Give just the number in nM; leave the unit off.

Reference set (3 entries):
- SEQUENCE_DATA: "AAGGUGAUCCGUGAUACCAGCUCAACAUGAGGAUCACCCAUGUACGGGACGAAAGUCCCGGGCCCUUGGCAGCACGGUUGCCAAG [SSTheo B #20]"
  UNIT_INFO: "nM"
  apparent KD of MS2 coat protein: 109
- SEQUENCE_DATA: "CUACAUGGGCUCGAUACCAGUCAGCUCUCGCGUCUCUCAGACAUGAGGAUCACCCAUGUUGACCCUUGGCAGCGACGAUGUAGGC [theeternabot_exclusion_MS2_Theo_B_46]"
  UNIT_INFO: "nM"
  apparent KD of MS2 coat protein: 83.9
- SEQUENCE_DATA: "GGGCGCUAUCCCGCGAGGGAUAGCGUUCAACGAGGACCGGUACGGCCGCCACUCGAACGAGUGGUGACAUGAGGAUCACCCAUGU [Iaa]"
  UNIT_INFO: "nM"
  apparent KD of MS2 coat protein: 56.4

INPUT: State its apparent KD of MS2 coat protein for this sequence: CUCGGGUUAUCAGAUACCAGACUAAAAUUUACAUGAGGAUCACCCAUGUAAUGGGUGAUAGUCCCUUGGCAGCUGUUAUGUUUAA [JR_ExcTheophyB_Sub001]
OUTPUT: 70.8

INPUT: Supply reported apparent KD of MS2 coat protein belonging to this sequence: AAGCUGGGUGUAAAAUAAAUAAUCACUGAUACCAGACUAUGAGAUGUCCCUUGGCAGCAGAAACAUGAGGAUCACCCAUGUAAUA [JR_Nu_ExcTheophyA_Sub027]
OUTPUT: 27.1

INPUT: Query apparent KD of MS2 coat protein for UUCUACAUGAGGAUCACCCAUGUGGGUGAUACCAGCACUUUUUGGUGCCCUUGGCAGCACAUGAGAAUACCGUACGAUCGGUGAU [Isbiti]
OUTPUT: 508

Measured values drawn from the supplement of paper PMC9170038 for this set.
